tested on: ES2 shARID1A (b) cells; assay: Cytotoxicity (SRB) assay with CalcuSyn combination analysis; assay type: cell-based; conditions: Homo sapiens, Table 2, teriflunomide alone, read-out: Dm
parameter: pIC50
One number for each entry, as −log10 of the molar value.

Problem: // fetch pIC50 for C/C(O)=C(\C#N)C(=O)Nc1ccc(C(F)(F)F)cc1 [Teriflunomide, teriflunomide] ; system: ES2 shARID1A (b) cells
Solution: 4.81

* * *

tested on: ES2-shScrambled (SCR) cells; experiment: Cytotoxicity (SRB) assay with CalcuSyn combination analysis; type: cell-based; details: Homo sapiens, Table 2, VX970 alone, read-out: Dm
parameter: pIC50
Answers are plain numbers, as −log10 of the molar value.

Problem: Look up pIC50 of `CNCc1ccc(-c2cc(-c3nc(-c4ccc(S(=O)(=O)C(C)C)cc4)cnc3N)on2)cc1` and report it.
Solution: 6.77

* * *

Exercise: for every item that follows, state its recorded IC50.
system: ES2 shARID1A (b) cells; assay: Cytotoxicity (SRB) assay with CalcuSyn combination analysis; assay type: cell-based; conditions: Homo sapiens, Table 1, single drug, median effect, read-out: Dm
Give bare numbers, in µM.

compound | IC50 (µM)
C/C(O)=C(\C#N)C(=O)Nc1ccc(C(F)(F)F)cc1 [Teriflunomide, teriflunomide] | 16.8

Consider now this further compound.
Problem: Look up IC50 of C[C@@H]1COCCN1c1cc(C2([S@](C)(=N)=O)CC2)nc(-c2cc[nH]c3nccc2-3)n1 [AZD6738] and report it.
Solution: 0.24
